Data provenance: paper PMC9486951

- System: methicillin-resistant Staphylococcus aureus (MRSA)
- ASSAY_EXPLANATION: MIC determination by broth dilution assay against MRSA
- Format: cell-based
- PARTICULARS: Staphylococcus aureus, MRSA; Table S5; against S. aureus; read-out: MIC
REPORTED_ENDPOINT: MIC

COMPOUND: CC(C)(C)[C@@H]1O[C@H](c2ccccc2)[C@H]2C(O)=C(C(=O)Nc3ccc(C(F)(F)F)cc3)C(=O)N21 (racemic) [12e]
VALUE_OBSERVED: 1 µg/mL
--
COMPOUND: CC(C)(C)[C@@H]1O[C@H](c2ccccc2)[C@H]2C(O)=C(C(=O)NCc3ccccc3)C(=O)N21 (racemic) [12u]
VALUE_OBSERVED: 15.6 µg/mL
--
COMPOUND: CC(C)(C)[C@@H]1O[C@H](c2ccccc2)[C@H]2C(O)=C(C(=O)Nc3ccc([N+](=O)[O-])cc3)C(=O)N21 (racemic) [12d]
VALUE_OBSERVED: 3.9 µg/mL
--
COMPOUND: CC(C)(C)[C@@H]1O[C@H](c2ccccc2)[C@H]2C(O)=C(C(=O)Nc3ccc(C4CCCCC4)cc3)C(=O)N21 (racemic) [12s]
VALUE_OBSERVED: 1 µg/mL
--
COMPOUND: CCCCCCc1ccc(NC(=O)C2=C(O)[C@@H]3[C@@H](c4ccccc4)O[C@@H](C(C)(C)C)N3C2=O)cc1 (racemic) [12m]
VALUE_OBSERVED: 0.49 µg/mL
--
COMPOUND: CC(C)(C)NC(=O)C1=C(O)[C@@H]2[C@@H](c3ccccc3)O[C@@H](C(C)(C)C)N2C1=O (racemic) [12v]
VALUE_OBSERVED: 3.9 µg/mL
--
COMPOUND: CC(C)(C)[C@@H]1O[C@H](c2ccccc2)[C@H]2C(O)=C(C(=O)NC3CCOCC3)C(=O)N21 (racemic) [12t]
VALUE_OBSERVED: 125 µg/mL
